# Study Target: S. aureus GyrB (Staphylococcus aureus, UniProt P0A0K8)
# Construct: purchased Inspiralis Ltd., Norwich, UK
# Sequence (P0A0K8 whole entry): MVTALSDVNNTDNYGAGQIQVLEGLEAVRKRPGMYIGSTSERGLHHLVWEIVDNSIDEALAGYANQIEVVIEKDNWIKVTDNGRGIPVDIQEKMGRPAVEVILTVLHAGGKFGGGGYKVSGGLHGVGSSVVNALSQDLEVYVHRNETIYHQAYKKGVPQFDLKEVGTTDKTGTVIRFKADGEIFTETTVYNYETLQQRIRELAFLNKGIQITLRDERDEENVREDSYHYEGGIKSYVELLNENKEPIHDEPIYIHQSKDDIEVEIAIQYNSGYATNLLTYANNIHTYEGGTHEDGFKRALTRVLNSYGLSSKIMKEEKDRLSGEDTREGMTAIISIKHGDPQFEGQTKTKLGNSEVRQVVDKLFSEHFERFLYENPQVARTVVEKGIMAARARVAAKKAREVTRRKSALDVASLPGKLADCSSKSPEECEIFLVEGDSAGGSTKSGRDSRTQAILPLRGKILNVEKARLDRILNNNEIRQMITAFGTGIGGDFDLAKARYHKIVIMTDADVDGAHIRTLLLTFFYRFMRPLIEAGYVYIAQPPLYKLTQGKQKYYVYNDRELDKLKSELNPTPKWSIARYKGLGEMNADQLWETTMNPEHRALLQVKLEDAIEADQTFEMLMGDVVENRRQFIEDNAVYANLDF
# Sequence (P20831 whole entry, further chain): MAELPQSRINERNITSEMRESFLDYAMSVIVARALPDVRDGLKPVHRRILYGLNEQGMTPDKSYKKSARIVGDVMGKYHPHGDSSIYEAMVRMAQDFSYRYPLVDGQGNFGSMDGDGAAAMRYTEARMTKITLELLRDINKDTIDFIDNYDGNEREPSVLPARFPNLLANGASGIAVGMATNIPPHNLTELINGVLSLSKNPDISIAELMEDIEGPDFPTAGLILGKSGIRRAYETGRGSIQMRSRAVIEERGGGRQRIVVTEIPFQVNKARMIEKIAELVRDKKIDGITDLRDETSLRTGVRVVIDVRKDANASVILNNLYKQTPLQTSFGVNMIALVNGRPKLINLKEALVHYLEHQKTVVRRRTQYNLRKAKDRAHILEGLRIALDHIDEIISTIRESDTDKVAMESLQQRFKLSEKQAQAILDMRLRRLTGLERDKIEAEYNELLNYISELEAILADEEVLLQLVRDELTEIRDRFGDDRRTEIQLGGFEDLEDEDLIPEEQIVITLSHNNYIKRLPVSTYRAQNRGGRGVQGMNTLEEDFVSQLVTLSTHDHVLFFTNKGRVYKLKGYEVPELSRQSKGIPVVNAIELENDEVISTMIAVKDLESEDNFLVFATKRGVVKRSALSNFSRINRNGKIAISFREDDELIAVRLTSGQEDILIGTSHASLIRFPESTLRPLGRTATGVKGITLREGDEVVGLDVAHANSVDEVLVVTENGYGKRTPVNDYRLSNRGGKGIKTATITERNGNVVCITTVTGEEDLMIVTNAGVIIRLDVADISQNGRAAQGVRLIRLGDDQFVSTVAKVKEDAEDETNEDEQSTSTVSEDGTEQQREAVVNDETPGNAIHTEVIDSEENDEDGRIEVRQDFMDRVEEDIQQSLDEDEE
# Procedure Details: S. aureus GyrB (Gyrase ATPase) inhibition assay, ADP-Glo
# Type: biochemical
# Study Conditions: IC50 for GyrB (µM, mean ± SD), S. aureus Gyrase ATPase inhibition; average of duplicates
Field: log10 IC50. Provide a value for each of the compounds that follow.
Note: values are log10 of IC50 expressed in µM.

Would you please look over these solved cases?
{"Structure String": "CCCCCc1nc2cc(OC)ccc2c(=O)n1NC(=O)c1c(O)c2ccccc2n(CC)c1=O", "Reported Value": 0.90}
{"Structure String": "CCCCCc1nc2ccc(C(F)(F)F)cc2c(=O)n1NC(=O)c1c(O)c2ccccc2n(CC)c1=O", "Reported Value": -0.09}
{"Structure String": "CCCCCc1nc2c(Cl)cccc2c(=O)n1NC(=O)c1c(O)c2ccccc2n(CC)c1=O", "Reported Value": 0.99}
{"Structure String": "CCn1c(=O)c(C(=O)Nn2c(C)nc3ccccc3c2=O)c(O)c2ccccc21", "Reported Value": 0.21}
{"Structure String": "CCCCCc1nc2ccccc2c(=O)n1NC(=O)c1c(O)c2ccccc2n(CC)c1=O", "Reported Value": 0.08}

# context switch: different compound, same log10 IC50
Asked: Request: log10 IC50, test system S. aureus GyrB (Staphylococcus aureus, UniProt P0A0K8), entry CCCCCc1nc2ccc(OC)cc2c(=O)n1NC(=O)c1c(O)c2ccccc2n(CC)c1=O
Given back: -0.51
